Biological target: T1, hGARP-proTGFβ1 (Homo sapiens, UniProt P01137)
T1 construct: made in house
T1 sequence (P01137 30-390): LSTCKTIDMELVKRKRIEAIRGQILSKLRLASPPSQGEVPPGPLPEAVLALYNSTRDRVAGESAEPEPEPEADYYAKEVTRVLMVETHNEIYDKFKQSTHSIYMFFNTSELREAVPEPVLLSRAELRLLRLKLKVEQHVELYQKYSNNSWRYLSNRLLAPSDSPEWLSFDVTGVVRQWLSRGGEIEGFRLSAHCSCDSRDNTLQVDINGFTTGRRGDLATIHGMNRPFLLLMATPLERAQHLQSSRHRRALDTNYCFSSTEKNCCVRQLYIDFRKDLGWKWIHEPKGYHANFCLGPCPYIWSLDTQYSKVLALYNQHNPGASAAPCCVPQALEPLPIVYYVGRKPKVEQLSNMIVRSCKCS
T1 sequence (Q14392 20-627 partner limits assumed): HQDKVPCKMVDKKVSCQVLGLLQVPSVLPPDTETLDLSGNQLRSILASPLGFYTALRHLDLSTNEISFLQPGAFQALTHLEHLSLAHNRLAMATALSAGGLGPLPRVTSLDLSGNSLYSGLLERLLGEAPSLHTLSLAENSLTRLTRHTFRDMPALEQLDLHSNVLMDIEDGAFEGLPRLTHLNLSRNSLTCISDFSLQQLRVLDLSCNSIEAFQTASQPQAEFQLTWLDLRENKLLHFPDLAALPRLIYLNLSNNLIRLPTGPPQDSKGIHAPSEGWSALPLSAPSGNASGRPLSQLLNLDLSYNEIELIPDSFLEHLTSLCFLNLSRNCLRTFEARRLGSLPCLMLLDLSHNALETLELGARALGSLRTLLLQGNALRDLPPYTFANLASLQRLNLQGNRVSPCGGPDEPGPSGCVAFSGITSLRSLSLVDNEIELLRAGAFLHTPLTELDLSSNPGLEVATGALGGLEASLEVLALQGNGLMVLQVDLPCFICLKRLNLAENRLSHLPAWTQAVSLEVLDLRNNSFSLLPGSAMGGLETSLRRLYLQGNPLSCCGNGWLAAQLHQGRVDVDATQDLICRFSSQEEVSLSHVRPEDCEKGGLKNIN
Assay: MSD-SET solution equilibrium titration binding
Details: MSD-SET at equilibrium, hIgG4, human complex; in M
Listed molecules paired with reported (E) hGARP, Cell-associated proTGFβ1 KD
// return just the number, without any unit appended

Form field (E) hGARP, Cell-associated proTGFβ1 KD, entry Ab29: monoclonal antibody; VH SEQ ID NO: 137, VL SEQ ID NO: 15 (antibody, V domains shown) VH: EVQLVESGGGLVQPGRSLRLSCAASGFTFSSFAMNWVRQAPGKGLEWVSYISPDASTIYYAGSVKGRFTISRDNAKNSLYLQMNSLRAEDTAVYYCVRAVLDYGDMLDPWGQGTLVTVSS VL: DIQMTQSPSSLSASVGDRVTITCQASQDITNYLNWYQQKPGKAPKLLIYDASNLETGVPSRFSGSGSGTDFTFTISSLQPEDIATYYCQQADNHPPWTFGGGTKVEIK : 5.50E−12

---
Please fill in: (E) hGARP, Cell-associated proTGFβ1 KD reported for Ab20: monoclonal antibody; VH SEQ ID NO: 251, VL SEQ ID NO: 241 (antibody, V domains shown) VH: EVQLLESGGGLVQPGGSLRLSCAASGFTFSAYAMTWVRQAPGKGLEWVSAISGSGGVTYYADSVKGRFTISRDNSKNTLYLQMNSLRAEDTAVYYCARVSSGHWDYDYWGQGTLVTVSS VL: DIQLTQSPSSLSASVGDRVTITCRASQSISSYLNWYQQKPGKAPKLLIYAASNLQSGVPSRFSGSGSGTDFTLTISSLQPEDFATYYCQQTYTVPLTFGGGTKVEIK = 1.10E−09
